// provenance: patent US5393780A

# studyTarget: UniProt P51639
# Sequence (P51639 1-887): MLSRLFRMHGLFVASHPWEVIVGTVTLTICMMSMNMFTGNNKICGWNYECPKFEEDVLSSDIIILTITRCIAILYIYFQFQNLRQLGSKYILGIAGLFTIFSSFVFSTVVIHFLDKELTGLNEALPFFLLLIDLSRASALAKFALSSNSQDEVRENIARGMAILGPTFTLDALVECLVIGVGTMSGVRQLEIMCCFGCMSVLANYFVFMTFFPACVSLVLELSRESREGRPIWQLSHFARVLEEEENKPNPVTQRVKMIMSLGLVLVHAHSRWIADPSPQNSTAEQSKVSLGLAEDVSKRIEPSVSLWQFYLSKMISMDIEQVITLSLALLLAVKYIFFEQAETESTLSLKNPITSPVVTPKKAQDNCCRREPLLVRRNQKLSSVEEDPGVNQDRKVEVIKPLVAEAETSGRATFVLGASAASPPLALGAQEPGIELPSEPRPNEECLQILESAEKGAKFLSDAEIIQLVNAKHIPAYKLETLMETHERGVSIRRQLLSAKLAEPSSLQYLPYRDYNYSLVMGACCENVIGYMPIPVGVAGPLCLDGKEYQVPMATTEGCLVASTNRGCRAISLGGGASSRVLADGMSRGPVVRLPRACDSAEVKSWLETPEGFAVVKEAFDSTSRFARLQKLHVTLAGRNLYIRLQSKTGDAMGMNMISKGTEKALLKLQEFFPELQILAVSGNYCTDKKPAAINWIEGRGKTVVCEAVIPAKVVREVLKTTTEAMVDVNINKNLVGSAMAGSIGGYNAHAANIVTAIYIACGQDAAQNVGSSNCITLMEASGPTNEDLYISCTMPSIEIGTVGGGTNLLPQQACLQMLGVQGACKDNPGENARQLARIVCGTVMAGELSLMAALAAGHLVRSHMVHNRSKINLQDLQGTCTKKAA
# protocolNotes: biochemical
# conditionParameters: read-out: HMG-CoA Reductase Inhibition %
Listing: inhibition at 0.1 µM of selected molecules
metric: inhibition at 0.1 µM

| molecule | metric | result |
| --- | --- | --- |
| CC(C)c1cc(OCc2ccncc2)cc(-c2ccc(F)cc2)c1/C=C/C(O)CC(O)CC(=O)O (stereo not drawn) | inhibition at 0.1 µM | 96% |
| CC(C)c1cc(OCc2ccccn2)cc(-c2ccc(F)cc2)c1/C=C/C(O)CC(O)CC(=O)O (stereo not drawn) | inhibition at 0.1 µM | 95% |
| CC(C)c1cc(OCCO)cc(-c2ccc(F)cc2)c1/C=C/C(O)CC(O)CC(=O)[O-].[Na+] (stereo not drawn) | inhibition at 0.1 µM | 98% |
| COCCOc1cc(-c2ccc(F)cc2)c(/C=C/C(O)CC(O)CC(=O)[O-])c(C(C)C)c1.[Na+] (stereo not drawn) | inhibition at 0.1 µM | 96% |
| CC[C@H](C)C(=O)O[C@H]1C[C@H](O)C=C2C=C[C@H](C)[C@H](CC[C@@H](O)C[C@@H](O)CC(=O)O)[C@H]21 | inhibition at 0.1 µM | 88% |
| CC(C)c1cc(OCc2cccnc2)cc(-c2ccc(F)cc2)c1/C=C/C(O)CC(O)CC(=O)O (stereo not drawn) | inhibition at 0.1 µM | 95% |

----------
Listing: logD of selected compounds
# protocolNotes: Determination of Partition Coefficient (n-octanol/phosphoric acid buffer pH 7.0)
# Assay type: physicochemical
# conditionParameters: n-octanol/phosphate buffer, P=Co/Cw
# Description: Determination of Partition Coefficient The partition coefficient of each of representative compounds synthesized in the above-mentioned Examples was determined in accordance with the method by Hansh et al. (J. Am. Chem. Soc., 86, 5175 (1964)). […] The partition coefficient of the compound was calculated in accordance with the following formula: […]
metric: logD

| compound | result |
| --- | --- |
| CC[C@H](C)C(=O)O[C@H]1C[C@H](O)C=C2C=C[C@H](C)[C@H](CC[C@@H](O)C[C@@H](O)CC(=O)O)[C@H]21 | -0.444 |
| COCCOCCOc1cc(-c2ccc(F)cc2)c(/C=C/C(O)CC(O)CC(=O)O)c(C(C)C)c1 (stereo not shown) | 0.519 |
| CC(C)c1cc(OCc2ccccn2)cc(-c2ccc(F)cc2)c1/C=C/C(O)CC(O)CC(=O)O (stereo not shown) | 1.43 |
| COCCOc1cc(-c2ccc(F)cc2)c(/C=C/C(O)CC(O)CC(=O)[O-])c(C(C)C)c1.[Na+] (stereo not shown) | 0.716 |

----------
# protocolNotes: Determination of Partition Coefficient (n-octanol/phosphoric acid buffer pH 7.0)
# Format: physicochemical
# conditionParameters: n-octanol/phosphate buffer, P=Co/Cw

| compound | logD |
| --- | --- |
| CC(C)c1cc(OCCO)cc(-c2ccc(F)cc2)c1/C=C/C(O)CC(O)CC(=O)[O-].[Na+] (stereo not drawn) | 0.114 |
| CC(C)c1cc(OCc2cccnc2)cc(-c2ccc(F)cc2)c1/C=C/C(O)CC(O)CC(=O)O (stereo not drawn) | 1.41 |
| CC(C)c1cc(OCc2ccncc2)cc(-c2ccc(F)cc2)c1/C=C/C(O)CC(O)CC(=O)O (stereo not drawn) | 1.48 |
